Data credit: patent US6586435B2

SYSTEM: 5-HT1A human receptors (Homo sapiens, UniProt P08908)
Construct: expressed in transfected cells; host or cells: CHO cells
Sequence (P08908 1-422): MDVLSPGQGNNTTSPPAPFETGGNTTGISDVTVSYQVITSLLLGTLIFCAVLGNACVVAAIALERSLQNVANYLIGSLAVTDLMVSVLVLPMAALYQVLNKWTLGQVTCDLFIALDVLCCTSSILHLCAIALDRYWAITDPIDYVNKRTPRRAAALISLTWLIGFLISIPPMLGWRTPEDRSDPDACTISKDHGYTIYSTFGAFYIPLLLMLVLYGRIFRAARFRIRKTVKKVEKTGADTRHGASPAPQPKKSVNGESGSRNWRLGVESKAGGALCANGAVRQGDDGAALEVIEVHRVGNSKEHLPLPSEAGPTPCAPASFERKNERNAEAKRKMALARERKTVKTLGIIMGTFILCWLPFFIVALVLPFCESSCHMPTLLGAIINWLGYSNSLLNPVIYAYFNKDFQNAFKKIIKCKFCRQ
EXPERIMENT: 5-HT1A radioligand receptor binding assay ([3H]-8-OH-DPAT)
EXPERIMENTAL CONDITIONS: membranes from CHO cells; [3H]-8-OH-DPAT; one binding site model; read-out: 5-HT1A Receptor Binding IC50
PROPERTY: IC50 (nM)

The following molecules have reported results that may help.
INSERT INTO measurements (molecule, system, assay_result) VALUES
  ('Cn1c(=O)n(C/C=C/CN2CCN(c3ccccn3)CC2)c2ccccc21 [Compound 89]', '5-HT1A human receptors (Homo sapiens, UniProt P08908)', 10),
  ('Cn1c(=O)n(C/C=C/CN2CCN(c3cccc(C(F)(F)F)c3)CC2)c2ccccc21 [Compound 94]', '5-HT1A human receptors (Homo sapiens, UniProt P08908)', 0.96),
  ('Cn1c(=O)n(C/C=C\CN2CCN(c3ccccc3)CC2)c2ccccc21 [Compound 35]', '5-HT1A human receptors (Homo sapiens, UniProt P08908)', 15),
  ('O=c1n(C/C=C/CN2CCN(c3cccc(Cl)c3)CC2)c2ccccc2n1CC1CCCCC1 [Compound 124]', '5-HT1A human receptors (Homo sapiens, UniProt P08908)', 11),
  ('O=c1n(C/C=C/CN2CCN(c3cccc(C(F)(F)F)c3)CC2)c2ccccc2n1CC1CCCCC1 [Compound 128]', '5-HT1A human receptors (Homo sapiens, UniProt P08908)', 8.4),
  ('O=c1n(C/C=C\CN2CCN(c3ccccc3)CC2)c2ccccc2n1CC1CCCCC1 [Compound 69]', '5-HT1A human receptors (Homo sapiens, UniProt P08908)', 13);

(a) CCCn1c(=O)n(C/C=C\CN2CCN(c3cccc(C(F)(F)F)c3)CC2)c2ccccc21 [Compound 60]
(b) O=c1n(C/C=C/CN2CCN(c3ccccc3)CC2)c2ccccc2n1CC1CCCCC1 [Compound 120]
(Q) // compare measured IC50 between a and b ; output the lower one Please indicate the selected item by its label.
(A) a
